# System: PC export transport activity
# Method Description: Inhibition of PC export transport activity in rat hepatocytes (d9-choline, taurocholic acid, LC/MS/MS)
# Assay type: cell-based
# Measurement Conditions: Hepatocyte, drug 1 μM, 100 μg/mL d9-choline, 5 mM taurocholic acid, 2 hours
Listing: inhibition at 1 µM of selected molecules

# input Quick one: inhibition at 1 µM for `COC1=CC(=O)C[C@@H](C)[C@]12Oc1c(Cl)c(OC)cc(OC)c1C2=O` ?
# output ≤ 30%

# input Field entry: CC(=O)N1CCN(c2ccc(OCC3COC(Cn4ccnc4)(c4ccc(Cl)cc4Cl)O3)cc2)CC1 (stereo not drawn)
# output 30 to 70%

# input Field entry: CC1=C(CC(=O)O)c2cc(F)ccc2/C1=C\c1ccc([S+](C)[O-])cc1 (stereo not drawn)
# output ≤ 30%

# input Field entry: `O=C(O)CCCC[C@@H]1SC[C@@H]2NC(=O)N[C@@H]21`
# output ≤ 30%

# input Field entry: `Clc1ccccc1C(c1ccccc1)(c1ccccc1)n1ccnc1`
# output ≤ 30%

# input Field entry: `CN(C)CCCN1c2ccccc2Sc2ccc(Cl)cc21`
# output 30 to 70%

---

Listing: inhibition at 100 µM of selected compounds
# System: PC export transport activity
# Method Description: Inhibition of PC export transport activity in rat hepatocytes (d9-choline, taurocholic acid, LC/MS/MS)
# Format: cell-based
# Measurement Conditions: Hepatocyte, drug 100 μM, 100 μg/mL d9-choline, 5 mM taurocholic acid, 2 hours

• CN(C)CCCN1c2ccccc2Sc2ccc(Cl)cc21 [Chlorpromazine, chlorpromazine] = ≥ 70%
• Clc1ccccc1C(c1ccccc1)(c1ccccc1)n1ccnc1 [Clotrimazole, clotrimazole] = ≥ 70%
• CC(=O)N1CCN(c2ccc(OCC3COC(Cn4ccnc4)(c4ccc(Cl)cc4Cl)O3)cc2)CC1 (stereo not drawn) [Ketoconazole, ketoconazole] = ≥ 70%
• COC1=CC(=O)C[C@@H](C)[C@]12Oc1c(Cl)c(OC)cc(OC)c1C2=O [Griseofulvin, griseofulvin] = ≥ 70%
• CC1=C(CC(=O)O)c2cc(F)ccc2/C1=C\c1ccc([S+](C)[O-])cc1 (stereo not drawn) [Sulindac, sulindac] = ≥ 70%

We next turn to a different compound, shown below.
# input Quick one: inhibition at 100 µM for O=C(O)CCCC[C@@H]1SC[C@@H]2NC(=O)N[C@@H]21 [Biotin, biotin] ?
# output ≤ 30%

---

Listing: inhibition at 100 µM of selected compounds
# System: PC export transport activity
# Method Description: Inhibition of PC export transport activity in human hepatocytes (d9-choline, taurocholic acid, LC/MS/MS)
# Type: cell-based
# Measurement Conditions: Hepatocyte, drug 100 μM, 100 μg/mL d9-choline, 5 mM taurocholic acid, 2 hours

Illustrative cases are given below, each with its answer.
* O=C(O)CCCC[C@@H]1SC[C@@H]2NC(=O)N[C@@H]21 | ≤ 30%
* CN(C)CCCN1c2ccccc2Sc2ccc(Cl)cc21 | ≥ 70%
* CC(=O)N1CCN(c2ccc(OCC3COC(Cn4ccnc4)(c4ccc(Cl)cc4Cl)O3)cc2)CC1 (centres unmarked) | ≥ 70%
* CC(C)(S)[C@@H](N)C(=O)O | ≤ 30%

# input Quick one: inhibition at 100 µM for Cc1c(C)c2c(c(C)c1O)CCC(C)(COc1ccc(CC3SC(=O)NC3=O)cc1)O2 (centres unmarked) ?
# output ≥ 70%
